# pIC50 per record follows
# Tested Target: MMP-9 (Homo sapiens)
# Sequence (P14780 107-707 limits assumed): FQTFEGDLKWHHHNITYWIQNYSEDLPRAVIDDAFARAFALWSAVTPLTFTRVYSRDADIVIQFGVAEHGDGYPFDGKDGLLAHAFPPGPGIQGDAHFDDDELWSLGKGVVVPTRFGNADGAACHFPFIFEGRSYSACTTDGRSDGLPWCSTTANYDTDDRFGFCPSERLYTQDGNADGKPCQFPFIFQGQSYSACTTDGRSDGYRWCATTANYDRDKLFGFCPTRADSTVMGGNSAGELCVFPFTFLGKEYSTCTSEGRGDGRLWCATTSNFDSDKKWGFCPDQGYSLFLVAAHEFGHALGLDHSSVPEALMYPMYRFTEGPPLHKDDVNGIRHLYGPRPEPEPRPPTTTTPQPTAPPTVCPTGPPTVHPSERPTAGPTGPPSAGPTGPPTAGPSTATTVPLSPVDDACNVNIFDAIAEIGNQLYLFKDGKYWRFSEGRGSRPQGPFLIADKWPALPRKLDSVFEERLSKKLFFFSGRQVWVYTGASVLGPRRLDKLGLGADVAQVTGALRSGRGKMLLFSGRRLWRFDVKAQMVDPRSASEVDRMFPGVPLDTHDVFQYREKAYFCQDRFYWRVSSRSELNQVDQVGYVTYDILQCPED
# Experiment: MMP microfluorometric profiling assay (fluorogenic Mca-peptide substrate)
pIC50: −log10 of the molar value.

>  <Compound>
O=C(CC1NC(=O)NC1=O)NC1=NN=C(c2ccc(N3CCCC3)cc2)CS1 (stereo not drawn)

>  <Tested Target>
MMP-9 (Homo sapiens)

>  <pIC50>
6.29

$$$$
>  <Compound>
C[C@H](NS(=O)(=O)c1ccccc1)C(=O)NC1=NN=C(c2ccc(Br)cc2)CS1

>  <Tested Target>
MMP-9 (Homo sapiens)

>  <pIC50>
6.16

$$$$
>  <Compound>
C[C@H](NS(=O)(=O)c1ccccc1)C(=O)NC1=NN=C(c2ccc(C#N)cc2)CS1

>  <Tested Target>
MMP-9 (Homo sapiens)

>  <pIC50>
6.48

$$$$

###

pIC50: −log10 of the molar value.
Record: pIC50 reported on ΔTM-MMP-14 (Homo sapiens).

>  <Molecule>
C[C@H](NS(=O)(=O)c1ccccc1)C(=O)NC1=NN=C(c2ccc(C(F)(F)F)cc2)CS1 [Example 4]

>  <pIC50>
6.15

$$$$
>  <Molecule>
C[C@H](NS(=O)(=O)c1ccccc1)C(=O)NC1=NN=C(c2ccc(Cl)s2)CS1 [Example 10]

>  <pIC50>
6.45

$$$$
>  <Molecule>
O=C1C[C@@H](C(=O)NC2=NN=C(c3ccc(Cl)cc3)CS2)NC(=O)N1 [Example 30]

>  <pIC50>
6.16

$$$$
>  <Molecule>
C[C@@H](NS(=O)(=O)c1ccccc1)C(=O)NC1=NN=C(c2ccc(F)cc2)CS1 [Example 14]

>  <pIC50>
6.22

$$$$
>  <Molecule>
C[C@H](NS(=O)(=O)c1ccccc1)C(=O)NC1=NN=C(c2ccc(C#N)cc2)CS1 [Example 3]

>  <pIC50>
6.15

$$$$

###

# Tested Target: cdMMP-8 (Homo sapiens, UniProt P22894)
# Construct: recombinant catalytic domain of human neutrophile Collagenase (cdMMP-8^Met80); made in house; host or cells: E. coli
# Sequence (P22894 100-262 limits assumed): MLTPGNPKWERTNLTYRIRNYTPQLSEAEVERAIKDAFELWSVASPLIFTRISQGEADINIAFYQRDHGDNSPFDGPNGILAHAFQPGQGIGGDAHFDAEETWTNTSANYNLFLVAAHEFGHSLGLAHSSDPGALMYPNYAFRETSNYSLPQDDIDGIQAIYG
# Experiment: MMP microfluorometric profiling assay (fluorogenic Mca-peptide substrate)
# Type: biochemical
# Condition Description: read-out: cdMMP-8 IC50
Where a name gives a salt, the structure may show the parent alone.

>  <Compound>
COc1ccc(C2=NN=C(NC(=O)[C@H](C)NS(=O)(=O)c3ccccc3)SC2)cc1

>  <IC50 (nM)>
354

$$$$
>  <Compound>
C[C@H](NS(=O)(=O)c1ccccc1)C(=O)NC1=NN=C(c2ccc([N+](=O)[O-])cc2)CS1

>  <IC50 (nM)>
337

$$$$
>  <Compound>
C[C@H](NS(=O)(=O)c1ccccc1)C(=O)NC1=NN=C(c2ccc(C#N)cc2)CS1

>  <IC50 (nM)>
440

$$$$
>  <Compound>
C=CCNC1=NN=C(c2ccc(Cl)cc2)CS1 [Example 31, hydrobromide]

>  <IC50 (nM)>
51900

$$$$
>  <Compound>
C[C@H](NS(=O)(=O)c1ccccc1)C(=O)NC1=NN=C(c2ccc(Cl)s2)CS1

>  <IC50 (nM)>
371

$$$$
>  <Compound>
O=C(CC1NC(=O)NC1=O)NC1=NN=C(c2ccc(N3CCCC3)cc2)CS1 (stereo not drawn)

>  <IC50 (nM)>
1170

$$$$
>  <Compound>
CC(C)(C)c1ccc(S(=O)(=O)NCC(=O)NC2=NN=C(c3ccc(Cl)cc3Cl)CS2)cc1

>  <IC50 (nM)>
492

$$$$
>  <Compound>
COc1ccc(S(=O)(=O)N[C@@H](C)C(=O)NC2=NN=C(c3ccc(C)cc3)CS2)cc1

>  <IC50 (nM)>
599

$$$$
>  <Compound>
COc1ccc(S(=O)(=O)NCC(=O)NC2=NN=C(c3ccc(Cl)cc3Cl)CS2)cc1

>  <IC50 (nM)>
306

$$$$
>  <Compound>
CC(C)[C@H](NS(=O)(=O)c1ccccc1)C(=O)NC1=NN=C(c2ccc(Cl)cc2)CS1

>  <IC50 (nM)>
1580

$$$$
>  <Compound>
CC(C)[C@@H](NS(=O)(=O)c1ccccc1)C(=O)NC1=NN=C(c2ccc(Cl)cc2)CS1

>  <IC50 (nM)>
8630

$$$$
>  <Compound>
COc1ccc(S(=O)(=O)NCC(=O)NC2=NN=C(c3c(F)c(F)c(F)c(F)c3F)CS2)cc1

>  <IC50 (nM)>
527

$$$$
>  <Compound>
C[C@H](NS(=O)(=O)c1ccccc1)C(=O)NC1=NN=C(c2ccc(Br)cc2)CS1

>  <IC50 (nM)>
231

$$$$
>  <Compound>
O=C(CC1NC(=O)NC1=O)NC1=NN=C(c2ccc(Br)cc2)CS1 (stereo not drawn)

>  <IC50 (nM)>
578

$$$$
>  <Compound>
O=C(CC1NC(=O)NC1=O)NC1=NN=C(c2ccc(Cl)cc2)CS1 (stereo not drawn)

>  <IC50 (nM)>
648

$$$$
>  <Compound>
C[C@@H](NS(=O)(=O)c1ccccc1)C(=O)NC1=NN=C(c2ccc(C#N)cc2)CS1

>  <IC50 (nM)>
468

$$$$
>  <Compound>
C[C@H](NS(=O)(=O)c1cccnc1)C(=O)NC1=NN=C(c2ccc(Cl)cc2)CS1

>  <IC50 (nM)>
377

$$$$
>  <Compound>
O=C1C[C@@H](C(=O)NC2=NN=C(c3ccc(Cl)cc3)CS2)NC(=O)N1

>  <IC50 (nM)>
692

$$$$

###

The entries below are paired with their reported pIC50.
# Tested Target: cdMMP-8 (Homo sapiens, UniProt P22894)
# Construct: recombinant catalytic domain of human neutrophile Collagenase (cdMMP-8^Met80); made in house; host or cells: E. coli
# Experiment: MMP microfluorometric profiling assay (fluorogenic Mca-peptide substrate)
# Format: biochemical
pIC50: −log10 of the molar value.
Observed Property: pIC50

>  <Compound>
C[C@H](NS(=O)(=O)N1CCOCC1)C(=O)NC1=NN=C(c2ccc(Cl)cc2)CS1 [Example 28]

>  <Meas Value>
6.53

$$$$
>  <Compound>
C[C@H](NS(=O)(=O)c1ccccc1)C(=O)NC1=NN=C(c2ccc(C(F)(F)F)cc2)CS1 [Example 4]

>  <Meas Value>
6.29

$$$$

###

# Tested Target: UniProt P03956
# Sequence (P03956 100-469): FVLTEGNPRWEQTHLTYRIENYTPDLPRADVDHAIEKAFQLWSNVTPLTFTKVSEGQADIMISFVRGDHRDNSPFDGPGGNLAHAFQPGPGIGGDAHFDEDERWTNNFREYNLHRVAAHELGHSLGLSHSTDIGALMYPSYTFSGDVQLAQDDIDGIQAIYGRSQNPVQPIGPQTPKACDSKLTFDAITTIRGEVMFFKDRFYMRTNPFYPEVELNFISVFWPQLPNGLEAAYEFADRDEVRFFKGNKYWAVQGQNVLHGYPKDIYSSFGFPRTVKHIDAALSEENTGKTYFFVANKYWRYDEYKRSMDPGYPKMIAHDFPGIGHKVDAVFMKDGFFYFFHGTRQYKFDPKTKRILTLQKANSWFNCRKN
Measured IC50 by item

>  <Smiles Str>
C[C@H](NS(=O)(=O)c1cccnc1)C(=O)NC1=NN=C(c2ccc(Cl)cc2)CS1

>  <IC50 [nM]>
507

$$$$
>  <Smiles Str>
C[C@H](NS(=O)(=O)N1CCOCC1)C(=O)NC1=NN=C(c2ccc(Cl)cc2)CS1

>  <IC50 [nM]>
537

$$$$
>  <Smiles Str>
C[C@@H](NS(=O)(=O)c1ccccc1)C(=O)NC1=NN=C(c2ccc(C#N)cc2)CS1

>  <IC50 [nM]>
451

$$$$
>  <Smiles Str>
C[C@H](NS(=O)(=O)c1ccccc1)C(=O)NC1=NN=C(c2ccc(Cl)s2)CS1

>  <IC50 [nM]>
520

$$$$
>  <Smiles Str>
C[C@H](NS(=O)(=O)c1ccccc1)C(=O)NC1=NN=C(c2ccc(C#N)cc2)CS1

>  <IC50 [nM]>
449

$$$$
>  <Smiles Str>
C[C@H](NS(=O)(=O)c1ccccc1)C(=O)NC1=NN=C(c2ccc(F)cc2)CS1

>  <IC50 [nM]>
500

$$$$
>  <Smiles Str>
C[C@@H](NS(=O)(=O)c1ccccc1)C(=O)NC1=NN=C(c2ccc(F)cc2)CS1

>  <IC50 [nM]>
725

$$$$
>  <Smiles Str>
C[C@H](NS(=O)(=O)c1ccccc1)C(=O)NC1=NN=C(c2ccc(C(F)(F)F)cc2)CS1

>  <IC50 [nM]>
490

$$$$

###

# Tested Target: cdMMP-14 (Homo sapiens, UniProt P50281)
# Construct: made in house; host or cells: E. coli
# Experiment: MMP microfluorometric profiling assay (fluorogenic Mca-peptide substrate)
# Format: biochemical
pIC50: −log10 of the molar value.
Reported values of pIC50 for individual entries

>  <Smiles Str>
C[C@H](NS(=O)(=O)c1cccnc1)C(=O)NC1=NN=C(c2ccc(Cl)cc2)CS1

>  <pIC50>
6.35

$$$$
>  <Smiles Str>
C[C@H](NS(=O)(=O)c1ccccc1)C(=O)NC1=NN=C(c2ccc(F)cc2)CS1

>  <pIC50>
6.08

$$$$
>  <Smiles Str>
C[C@H](NS(=O)(=O)N1CCOCC1)C(=O)NC1=NN=C(c2ccc(Cl)cc2)CS1

>  <pIC50>
6.33

$$$$
>  <Smiles Str>
C[C@@H](NS(=O)(=O)c1ccccc1)C(=O)NC1=NN=C(c2ccc(C#N)cc2)CS1

>  <pIC50>
6.46

$$$$
>  <Smiles Str>
C[C@@H](NS(=O)(=O)c1ccccc1)C(=O)NC1=NN=C(c2ccc(F)cc2)CS1

>  <pIC50>
6.14

$$$$
>  <Smiles Str>
C[C@H](NS(=O)(=O)c1ccccc1)C(=O)NC1=NN=C(c2ccc(C#N)cc2)CS1

>  <pIC50>
6.34

$$$$
>  <Smiles Str>
COc1ccc(S(=O)(=O)NCC(=O)NC2=NN=C(c3c(F)c(F)c(F)c(F)c3F)CS2)cc1

>  <pIC50>
5.75

$$$$
>  <Smiles Str>
CC(C)[C@H](NS(=O)(=O)c1ccccc1)C(=O)NC1=NN=C(c2ccc(Cl)cc2)CS1

>  <pIC50>
5.85

$$$$
